Values compiled from the supplement of paper PMC7125110.

B1: glmS ribozyme (parent)
chain: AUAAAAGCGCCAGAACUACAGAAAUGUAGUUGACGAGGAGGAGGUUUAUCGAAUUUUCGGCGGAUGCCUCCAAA

Variants of: B1
Experiment: self-cleavage kobs at 2500 uM GlcN6P; higher = faster cleavage; RNA array
Conditions: with glucosamine-6-phosphate
Fewer inactive variants are shown than the library holds.

# variant-designation, self-cleavage kobs at 2500 uM GlcN6P
rows = [
    ("U47C U55A", "0.00273 s⁻¹"),
    ("G35A A42G", "< 1e-05 s⁻¹"),
    ("C34A G38U U54A", "< 1e-05 s⁻¹"),
    ("U46C G60U", "< 1e-05 s⁻¹"),
    ("G40C C61G", "< 1e-05 s⁻¹"),
    ("A42U U69A", "0.0275 s⁻¹"),
    ("A14C U54C U57A G60A C70U", "< 1e-05 s⁻¹"),
    ("G32C C58U U65G", "< 1e-05 s⁻¹"),
    ("G32A U45A", "0.003 s⁻¹"),
    ("A15C U30A U31C A48U", "7.36e-05 s⁻¹"),
    ("G43C A52U", "< 1e-05 s⁻¹"),
    ("A12U A15U C50A G51A G59C", "< 1e-05 s⁻¹"),
    ("A6C G35U G38A G43U U54G C67U", "< 1e-05 s⁻¹"),
    ("G9U C67A", "< 1e-05 s⁻¹"),
    ("G7U U45G", "< 1e-05 s⁻¹"),
    ("U55G C68A", "9.69e-05 s⁻¹"),
    ("A33U G37A U55A C61U", "< 1e-05 s⁻¹"),
    ("A15G C16A U30A A64G", "0.00162 s⁻¹"),
    ("A6U G63U", "< 1e-05 s⁻¹"),
    ("G32U G35C U46G", "< 1e-05 s⁻¹"),
    ("U31A C67U", "0.00135 s⁻¹"),
    ("C11G U31A U47C C61G", "< 1e-05 s⁻¹"),
]
